Tested on: MDA-MB-468 breast
assayInfo: NCI tumour cell line growth inhibition, 48 h; in the data active = GI50 below about 0.43 µM; inactive = the rest
Could you please pick one outcome from this set? active, inactive

Recorded results for 5 compounds are shown here.
Tell me the recorded outcome of this test for "O=S(=O)(Nc1ccc(F)cc1F)c1ccc(-c2cnc(C3CC3)o2)cc1" .
active

Tell me the recorded outcome of this test for "C#COc1cccc(Nc2c(C#N)cnc3ncc(NC(=O)CCl)cc23)c1" .
inactive

Tell me the recorded outcome of this test for "C#C[C@]1(O)CC[C@H]2[C@@H]3CC=C4c5sc(Nc6ccc(N(C)C)cc6)nc5CC[C@]4(C)[C@H]3CC[C@@]21C" .
inactive

Tell me the recorded outcome of this test for "COc1cc(/C=C/C(=O)c2cc(OC)c(OC)c(OC)c2)ccc1OCc1ccc(F)cc1" .
inactive

Tell me the recorded outcome of this test for "N=C(N)c1ccc2nc(-c3cc(CC(=O)N[C@@H](CC(=O)O)C(=O)O)cc(-c4cc(S(N)(=O)=O)ccc4O)c3O)[nH]c2c1" .
inactive

***
Tell me the recorded outcome of this test for "O=C1NC(=NCCc2cccc(Cl)c2)S/C1=C\c1ccc2ncccc2c1" .
inactive

Tell me the recorded outcome of this test for "O=C1NC(=O)/C(=C\c2ccccc2)C2=C1CCCC2" .
inactive

Tell me the recorded outcome of this test for "CCOC(=O)c1c(NC(=O)c2cccc(C(F)(F)F)c2)sc2c(CN(C)C)c(O)ccc12" .
inactive
